B1: KRT18 (parent)
chain: KSQDLAKIMADIRAQYDELARKNR

Variants of: B1
Test: protein stability index of a GFP-peptide fusion (GPS, HEK-293T) (PSI 1-6); higher = more stable;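 also: lentivirally expressed fusions sorted by FACS into six bins by GFP to DsRed ratio, PSI derived from sequencing read proportions per bin multiplied by bin number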
Details: c terminus: a fixed tail appended
PROPERTY: protein stability index
Note: the reply should be a number with no unit written.

Sample answers from the record:
1. KSQDLIKIMADIRAQYDELARKNR | 2.01
2. KSQDLAKIMADIRAQYDELARKVR | 3.04
3. KSQMLAKIMADIRAQYDELARKNR | 1.99
4. KSQDLAKIMAEIRAQYDELARKNR | 2.14
5. KPQDLAKIMADIRAQYDELARKNR | 2.43

Now for the variant whose protein stability index we want.
[Q] Quick one: give measured protein stability index for KSQDLAKISADIRAQYDELARKNR
[A] 3.89

Where do the numbers come from? From the supplement of paper PMC10567573.
